Data provenance: PubChem BioAssay AID1631

- target-or-test-system: Pyruvate kinase PKM (Homo sapiens)
- assay-text: qHTS Assay for Activators of Human Muscle isoform 2 Pyruvate Kinase; also: nearly all actives have a fitted effect of over 55% in size; as to activation: % is scaled to controls: 0 for no effect and ±100 for the full control effect
- experimental-parameters: purified PKM2, Kinase-Glo ATP luminescence; activation; series mostly up to 57.5 µM
About 890 (0.34%) of roughly 260,000 compounds were called active. Inconclusive results (about 1%) are left out. Calls follow the shape of the dose curve; as a rule, active = well fitted activation curve with a large enough effect; inconclusive = small, poorly fitted or top-dose-only effect; inactive = no such curve, though single readings can be large or run the other way. The sample holds actives, similar compounds and a random draw of the others, so the mix is not that of the screen.
Can you answer with just one of these options? TRUE = active, FALSE = inactive

Solved entries (count: 2):
O=C(NCCN1CCN(C(=O)c2cccc([N+](=O)[O-])c2)CC1)C(=O)NCc1ccc(Cl)cc1 : FALSE
O=C(Cc1ccc(Cl)c(Cl)c1)Nc1ccc(SC(F)F)cc1 : FALSE

Input: Test call, this compound: "COc1cccc(CC(=O)Nc2nc(-c3ccc(OC)c(OC)c3)cs2)c1"
Output: FALSE

Input: Test call, this compound: "Nc1cccc(S(=O)(=O)Nc2ccc(SC(F)F)cc2)c1"
Output: TRUE

Input: Test call, this compound: "Cc1ccc(NC(=S)Nc2ccc(F)cc2)cc1"
Output: FALSE

Input: Test call, this compound: "O=C(Cc1ccc(Cl)cc1)NC(=S)Nc1ccccc1O"
Output: FALSE

* * *

- target-or-test-system: Pyruvate kinase PKM (Homo sapiens) (UniProt P14618)
- Sequence (P14618 whole entry, looked up, canonical isoform): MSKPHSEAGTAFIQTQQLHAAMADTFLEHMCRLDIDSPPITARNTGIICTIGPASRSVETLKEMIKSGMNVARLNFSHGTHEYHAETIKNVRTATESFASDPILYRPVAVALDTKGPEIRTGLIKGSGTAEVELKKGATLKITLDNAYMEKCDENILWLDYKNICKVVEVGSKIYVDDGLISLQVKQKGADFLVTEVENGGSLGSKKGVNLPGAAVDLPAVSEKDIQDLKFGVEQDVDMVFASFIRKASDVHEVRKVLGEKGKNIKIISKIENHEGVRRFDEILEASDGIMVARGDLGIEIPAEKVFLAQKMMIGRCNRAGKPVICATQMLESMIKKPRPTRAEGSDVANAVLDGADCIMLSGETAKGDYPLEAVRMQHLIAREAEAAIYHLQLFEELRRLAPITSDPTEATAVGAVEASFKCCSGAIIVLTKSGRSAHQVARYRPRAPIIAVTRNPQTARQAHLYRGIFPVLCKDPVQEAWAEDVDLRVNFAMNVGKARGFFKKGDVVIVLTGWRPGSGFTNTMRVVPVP
- assay-text: qHTS Assay for Activators of Human Muscle isoform 2 Pyruvate Kinase; also: nearly all actives have a fitted effect of over 55% in size; as to activation: % is scaled to controls: 0 for no effect and ±100 for the full control effect
- experimental-parameters: purified PKM2, Kinase-Glo ATP luminescence; activation; series mostly up to 57.5 µM
Hit rate of the full screen: of about 260,000 compounds, about 890 (0.34%) were called active. Roughly 1% stayed inconclusive and do not appear here. Calls follow the shape of the dose curve; as a rule, active = well fitted activation curve with a large enough effect; inconclusive = small, poorly fitted or top-dose-only effect; inactive = no such curve, though single readings can be large or run the other way. The sample holds actives, similar compounds and a random draw of the others, so the mix is not that of the screen.
Can you answer with just one of these options? active, inactive

CCC(C)C(=O)Nc1ccccc1N1CCN(c2ccc(F)cc2)CC1 (configuration not stated) : inactive
CC[C@]1(c2ccccc2OC)C(=O)N(C(=O)OC)N1C(=O)OC : inactive
Cc1cc(NC(=O)CSc2nnc(-c3ccc(Cl)s3)o2)no1 : active

Consider the additional molecule presented here.
Input: Test call, this molecule: Nc1c(Cl)cc(-c2csc(N3CCCC3c3nc4cc(Cl)c(Cl)cc4n3CCOCCO)n2)cc1Cl (configuration not stated)
Output: inactive

* * *

- target-or-test-system: Pyruvate kinase PKM (Homo sapiens) (UniProt P14618)
- assay-text: qHTS Assay for Activators of Human Muscle isoform 2 Pyruvate Kinase; also: nearly all actives have a fitted effect of over 55% in size; as to activation: % is scaled to controls: 0 for no effect and ±100 for the full control effect
- experimental-parameters: purified PKM2, Kinase-Glo ATP luminescence; activation; series mostly up to 57.5 µM
Screen size: about 260,000 compounds; about 890 (0.34%) were called active. Roughly 1% stayed inconclusive and do not appear here. Calls come from the whole dose curve; as a rule, active = well fitted activation curve with a large enough effect; inconclusive = small, poorly fitted or top-dose-only effect; inactive = no such curve, though single readings can be large or run the other way. What follows is part of a selection rich in actives, with near analogues and random picks from the rest.
Can you answer with just one of these options? 1 = active, -1 = inactive

Fc1ccc(/C=N/Nc2nc(-c3cccnc3)nc3ccccc23)cc1 : -1
COc1cc(/C=C/C(=O)N2CCc3ccccc3C2)cc(OC)c1OC : -1
COc1nnc(-c2ccc(C)c(S(=O)(=O)N(C)C)c2)c2ccccc12 : -1
Cc1cc(C)cc(OCc2nnc(SCC(=O)Nc3ccccc3)o2)c1 : -1
O=C(Nc1ccc(C(=O)N2CCCCC2)cc1)c1cccc([N+](=O)[O-])c1 : -1

Input: Test call, this molecule: "CCOc1cc(-c2cc(-c3ccc(NC(C)=O)cc3)nc(N)c2C#N)ccc1O"
Output: -1

Input: Test call, this molecule: "CN(NS(=O)(=O)c1cccs1)c1ncc(C(F)(F)F)cc1Cl"
Output: -1

Input: Test call, this molecule: COC(=O)c1ccc(CN2CCCC(C(=O)Nc3cccc(-n4cnnn4)c3)C2)cc1 (stereo not drawn)
Output: -1

Input: Test call, this molecule: "COc1cccc(NC(=O)CSc2nnc(Cc3ccc(OC)c(OC)c3)o2)c1"
Output: 1
